Field: self-splicing fitness (ln). Provide a value for each of the sequences that follow.
TEST_PROTOCOL: self-splicing fitness, log relative to wild type (ln ratio); higher = more splicing; Tetrahymena group I intron in knt gene, E. coli kanamycin selection, DiMSum; sequences stand for … in CUCUCU…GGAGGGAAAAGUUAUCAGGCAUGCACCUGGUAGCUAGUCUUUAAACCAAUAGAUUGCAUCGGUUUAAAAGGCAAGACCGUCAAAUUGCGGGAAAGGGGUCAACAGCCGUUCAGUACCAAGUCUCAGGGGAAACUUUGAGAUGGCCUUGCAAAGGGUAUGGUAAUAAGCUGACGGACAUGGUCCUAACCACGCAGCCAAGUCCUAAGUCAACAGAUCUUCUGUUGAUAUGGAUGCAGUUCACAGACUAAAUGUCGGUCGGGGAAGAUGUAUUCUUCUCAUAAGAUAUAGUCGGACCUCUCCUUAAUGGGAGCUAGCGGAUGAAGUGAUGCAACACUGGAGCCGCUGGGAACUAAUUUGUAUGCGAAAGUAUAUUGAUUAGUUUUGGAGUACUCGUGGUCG;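 further: selection with 25 µg/mL kanamycin versus none on LB agar overnight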
EXPERIMENTAL_PARAMETERS: 37 °C
Returns: the value as a bare number; no unit string appended.

Check the records and state self-splicing fitness (ln) for AUGGAGCAAUAUUACGGAUG -2.29

Check the records and state self-splicing fitness (ln) for GCAGAGCAAUAUUACGUAGU -3.09

Check the records and state self-splicing fitness (ln) for CGAAAGCAAUAUUACGAGGU -1.64

Check the records and state self-splicing fitness (ln) for GACGAGCAAUAUUACGAAUC -2.14

Check the records and state self-splicing fitness (ln) for GAGAAGCAAUAUUACGGGGA -2.67

Check the records and state self-splicing fitness (ln) for UUCAAGCAAUAUUACGCGGG -1.95

---

TEST_PROTOCOL: self-splicing fitness, log relative to wild type (ln ratio); higher = more splicing; Tetrahymena group I intron in knt gene, E. coli kanamycin selection, DiMSum; sequences stand for … in CUCUCU…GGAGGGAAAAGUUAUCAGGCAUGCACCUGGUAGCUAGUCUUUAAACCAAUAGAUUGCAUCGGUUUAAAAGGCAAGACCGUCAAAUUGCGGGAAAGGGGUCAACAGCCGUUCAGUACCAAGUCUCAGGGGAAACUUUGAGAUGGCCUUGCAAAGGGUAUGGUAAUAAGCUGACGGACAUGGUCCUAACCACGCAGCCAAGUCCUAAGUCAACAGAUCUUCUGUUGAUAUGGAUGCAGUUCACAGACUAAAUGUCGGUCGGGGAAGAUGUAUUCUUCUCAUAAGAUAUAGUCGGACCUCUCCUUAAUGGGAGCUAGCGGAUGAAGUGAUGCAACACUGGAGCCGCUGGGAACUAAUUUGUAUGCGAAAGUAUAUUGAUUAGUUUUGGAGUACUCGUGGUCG
EXPERIMENTAL_PARAMETERS: 30 °C
QUANTITY: self-splicing fitness (ln)
Returns: the value as a bare number; no unit string appended.

Check the records and state self-splicing fitness (ln) for CUCCAGCAAUAUUACGGGAU -2.92

Check the records and state self-splicing fitness (ln) for ACGAAGCAAUAUUACGAUAG -3.09

Check the records and state self-splicing fitness (ln) for GAACAGCAAUAUUACGAGGC -3.07

---

TEST_PROTOCOL: self-splicing fitness, log relative to wild type (ln ratio); higher = more splicing; Tetrahymena group I intron in knt gene, E. coli kanamycin selection, DiMSum; sequences stand for … in CUCUCU…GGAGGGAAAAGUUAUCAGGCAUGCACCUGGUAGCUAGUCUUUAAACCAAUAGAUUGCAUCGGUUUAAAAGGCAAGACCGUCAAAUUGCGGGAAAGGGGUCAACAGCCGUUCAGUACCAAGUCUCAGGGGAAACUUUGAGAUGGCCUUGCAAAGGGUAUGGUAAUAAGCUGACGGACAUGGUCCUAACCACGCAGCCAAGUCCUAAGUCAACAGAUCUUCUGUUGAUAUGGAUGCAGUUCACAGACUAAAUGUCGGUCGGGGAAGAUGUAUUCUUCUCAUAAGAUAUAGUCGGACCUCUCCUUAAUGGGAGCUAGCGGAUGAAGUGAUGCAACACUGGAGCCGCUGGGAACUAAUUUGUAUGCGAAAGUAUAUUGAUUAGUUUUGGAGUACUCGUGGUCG
EXPERIMENTAL_PARAMETERS: 37 °C
QUANTITY: self-splicing fitness (ln)
Returns: the value as a bare number; no unit string appended.

Check the records and state self-splicing fitness (ln) for GGUGAGCAAUAUUACGCGAG -1.97

Check the records and state self-splicing fitness (ln) for GCGUAGCAAUAUUACGCGCC -1.51

Check the records and state self-splicing fitness (ln) for GCAUAGCAAUAUUACGAACA -1.34

Check the records and state self-splicing fitness (ln) for CCGUAGCAAUAUUACGACUA -1.08

Check the records and state self-splicing fitness (ln) for UAGCAGCAAUAUUACGCGUA 0.478

Check the records and state self-splicing fitness (ln) for CCAGAGCAAUAUUACGUGCC -2.76

Check the records and state self-splicing fitness (ln) for CUUCAGCAAUAUUACGAAUU -0.66

Check the records and state self-splicing fitness (ln) for CGGAAGCAAUAUUACGACAU -2.32

Check the records and state self-splicing fitness (ln) for UAGCAGCAAUAUUACGGGAG -2.11

Check the records and state self-splicing fitness (ln) for GCAUAGCAAUAUUACGUGUA -0.881

Check the records and state self-splicing fitness (ln) for CCUCAGCAAUAUUACGUGAC -2.66

Check the records and state self-splicing fitness (ln) for GGAUAGCAAUAUUACGCCGG -1.28

Check the records and state self-splicing fitness (ln) for ACCGAGCAAUAUUACGGCAC -1.76

Check the records and state self-splicing fitness (ln) for AAGAAGCAAUAUUACGUAUG -1.14

Check the records and state self-splicing fitness (ln) for AGGAAGCAAUAUUACGGUGC -2.51

Check the records and state self-splicing fitness (ln) for CUUCAGCAAUAUUACGUUUC -2.17

Check the records and state self-splicing fitness (ln) for UGAGAGCAAUAUUACGAGGG -1.09

Check the records and state self-splicing fitness (ln) for UCGAAGCAAUAUUACGCAUC -2.36

Check the records and state self-splicing fitness (ln) for ACCUAGCAAUAUUACGCGUU -0.77

Check the records and state self-splicing fitness (ln) for GAUUAGCAAUAUUACGCCAU -1.97

Check the records and state self-splicing fitness (ln) for UUGAAGCAAUAUUACGGGGC -2.74

Check the records and state self-splicing fitness (ln) for CGAAAGCAAUAUUACGCAUU -2.94

Check the records and state self-splicing fitness (ln) for CUACAGCAAUAUUACGCCGA -3.15
